These entries and their values trace back to the NIST ThermoML archive (doi:10.1021/acs.jced.6b00269).

experimental-context: 338.15 K; 101.33 kPa; Liquid; Vibrating tube method
readout-kind: mass density (kg/m3)
# output: bare number, implied unit kg/m3

CC(=O)[O-].CCCCCCn1cc[n+](C)c1 [3-hexyl-1-methylimidazolium acetate]; 992.6

Given CC[P+](CC)(CC)COCCOC.O=S(=O)([N-]S(=O)(=O)C(F)(F)F)C(F)(F)F , state its recorded mass density.
1324.6

Lookup CCCCCCCC[P+](CC)(CC)CC.O=[N+]([O-])c1c[n-]cn1 [triethyloctylphosphonium 4-nitroimidazolide]
1005.7

Okay, and CCCCCCCCSC(N(C)C)=[N+](C)C.O=S(=O)([N-]S(=O)(=O)C(F)(F)F)C(F)(F)F ?
1262.9

Further, for CCCCCCCC[P+](CC)(CC)CC.O=[N+]([O-])c1cn[n-]c1 [triethyloctylphosphonium 4-nitropyrazolide] ?
1007.3

Request: CCC[n+]1ccn(C)c1C.O=[N+]([O-])c1cn[n-]c1 [1,2-dimethyl-3-propylimidazolium 4-nitropyrazolide]
1156.1
